assay: Half-life in humans after single oral doses to healthy volunteers; conditions: human, in vivo, single oral doses 1 to 25 mg, read-out: terminal half-life, mean over all doses (converted)
Attribute measured: half-life (h)
Answers are plain numbers, in h.

-- ask Request the reported half-life associated with Nc1cc2c3c(c1)C(c1ccccc1)=N[C@@H](NC(=O)c1cccnc1)C(=O)N3CC2
-- reply 15.4

* * *

Please provide measured pIC50 for the entries that follow.
test system: LPS-induced TNFα release in whole blood; assay: Inhibition of in vitro LPS-induced TNFα production in whole blood of COPD patients; type: cell-based; details: Homo sapiens; whole blood of COPD patients (n=7), LPS 50 μg/ml, 22-24 h at 37° C., ELISA
Answers are plain numbers, as −log10 of the molar value.

• Nc1cc2c3c(c1)C(c1ccccc1)=N[C@@H](NC(=O)c1cccnc1)C(=O)N3CC2 [compound 1] = 5.89

Lab note: next compound to report on.
-- ask Find pIC50 (LPS-induced TNFα release in whole blood) for the entry COc1ccc(C2CNC(=O)C2)cc1OC1CCCC1 (stereo not drawn) [rolipram]
-- reply 5.55

* * *

assay: Half-life in humans after single oral doses to healthy volunteers; conditions: human, in vivo, single oral doses 1 to 25 mg, read-out: mean terminal half-life values, range over doses
Attribute measured: half-life

-- ask # get_value(readout='half-life', item= Nc1cc2c3c(c1)C(c1ccccc1)=N[C@@H](NC(=O)c1cccnc1)C(=O)N3CC2 )
-- reply 13.9 to 17.1 h

Data origin: patent US6544983B2
